Origin of measurements: PubChem BioAssay AID465

# experimental.protocol: inhibitors of PMA/ionomycin-induced NF-kB reporter, primary screen, antigen receptor NF-kB inhibitor project, cell-based, HEK-293 luciferase reporter, luminescence (AID 465);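 note: 0% = stimulated DMSO wells and 100% = 10 µM reference inhibitor 5653914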
# condition.details: HEK-293 NF-kB luciferase reporter, at 3 µM, stronger effect = higher value
Out of some 62,000 compounds screened, about 130 (0.21%) were called active. The full list was thinned out, with actives kept by preference.
assay.endpoint: inhibition (%)
Answers are plain numbers, in %.

compound: O=C(c1ccc2c(c1)OCCO2)C1CCN(S(=O)(=O)c2cccc(F)c2)CC1
unit.name: %
number: 6.7
//
compound: CCCCc1nc2c(=O)[nH]c3ccccc3c2o1
unit.name: %
number: 7.6
//
compound: Cc1ccc(OS(=O)Nc2cccc3nccnc23)cc1 (stereo unspecified)
unit.name: %
number: 8.8
//
compound: Cc1ccc(-c2cc(C(F)(F)F)n3nc(C(=O)N4CCCC4)cc3n2)cc1
unit.name: %
number: 13.3
//
compound: CCCN1C2=C(C(=O)CCC2)C(c2ccc(O)c(Br)c2)C2=C1CCCC2=O
unit.name: %
number: -2.4
//
compound: N#CC1=C(N)OC2=C(C(=O)CCC2)C1C1CC=CCC1 (stereo unspecified)
unit.name: %
number: 16.6
//
compound: COc1ccc(O)c(C(=O)c2cnc3onc(C(C)C)c3c2)c1
unit.name: %
number: 8.8
//
compound: Cc1ccnc(N2CCC(C(=O)NC3CCCCCC3)CC2)n1
unit.name: %
number: 11.5
//
compound: Cc1c(C(=O)N2CC(C)OC(C)C2)sc2nc(-c3ccccc3)cn12 (stereo unspecified)
unit.name: %
number: -1.4
//
compound: Oc1c(C(c2cccs2)N2CCN(c3ccc(F)cc3)CC2)sc2ncnn12 (stereo unspecified)
unit.name: %
number: -1

// next item, inhibition requested
QUERY: Would you mind telling me what inhibition value was observed for CCCCC(CC)C(=O)Nc1ccc(Cl)cn1 (stereo unspecified) ?
RESULT: -0.6
